Target: VEGFR1 (Homo sapiens)
Sequence (P17948 27-1338, species assumed): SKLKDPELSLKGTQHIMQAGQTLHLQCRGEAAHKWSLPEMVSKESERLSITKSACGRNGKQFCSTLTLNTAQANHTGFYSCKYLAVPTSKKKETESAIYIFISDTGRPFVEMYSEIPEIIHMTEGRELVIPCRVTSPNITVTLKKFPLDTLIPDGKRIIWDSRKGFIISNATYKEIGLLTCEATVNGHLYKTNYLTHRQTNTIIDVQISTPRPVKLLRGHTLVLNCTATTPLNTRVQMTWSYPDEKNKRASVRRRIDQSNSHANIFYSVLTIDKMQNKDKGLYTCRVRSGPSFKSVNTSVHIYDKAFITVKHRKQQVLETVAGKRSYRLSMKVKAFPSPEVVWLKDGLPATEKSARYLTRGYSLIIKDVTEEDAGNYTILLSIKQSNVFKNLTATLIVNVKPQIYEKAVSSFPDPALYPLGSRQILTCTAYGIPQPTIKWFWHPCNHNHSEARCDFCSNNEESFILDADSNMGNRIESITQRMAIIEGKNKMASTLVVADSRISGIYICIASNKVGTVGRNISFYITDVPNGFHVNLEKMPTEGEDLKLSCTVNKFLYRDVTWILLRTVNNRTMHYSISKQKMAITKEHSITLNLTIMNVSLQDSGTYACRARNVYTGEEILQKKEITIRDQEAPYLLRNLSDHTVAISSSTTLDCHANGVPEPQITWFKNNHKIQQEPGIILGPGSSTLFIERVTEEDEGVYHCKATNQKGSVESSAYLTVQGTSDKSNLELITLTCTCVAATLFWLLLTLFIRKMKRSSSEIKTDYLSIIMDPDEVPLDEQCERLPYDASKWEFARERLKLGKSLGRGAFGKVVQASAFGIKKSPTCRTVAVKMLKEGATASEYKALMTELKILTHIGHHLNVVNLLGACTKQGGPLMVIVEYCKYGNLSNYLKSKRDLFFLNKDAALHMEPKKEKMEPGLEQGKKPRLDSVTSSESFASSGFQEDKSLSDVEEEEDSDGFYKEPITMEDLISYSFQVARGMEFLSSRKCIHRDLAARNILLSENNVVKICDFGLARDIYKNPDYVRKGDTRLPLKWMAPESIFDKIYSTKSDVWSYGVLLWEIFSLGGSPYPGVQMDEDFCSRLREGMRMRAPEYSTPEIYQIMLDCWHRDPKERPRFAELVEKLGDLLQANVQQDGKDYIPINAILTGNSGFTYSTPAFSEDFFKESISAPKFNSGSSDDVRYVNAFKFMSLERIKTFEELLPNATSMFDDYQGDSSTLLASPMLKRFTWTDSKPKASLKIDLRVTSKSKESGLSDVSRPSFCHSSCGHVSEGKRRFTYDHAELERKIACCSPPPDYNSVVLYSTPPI
observation.type: IC50

1) CCOC(=O)CN1CCN(CCNC(=O)c2c[nH]c(-c3cc(Oc4ccc(NC(=O)Nc5cc(C)ccc5F)cc4)ccn3)c2)CC1 [Example 157] : 8 nM
2) COC(=O)CC[C@H](NC(=O)c1c[nH]c(-c2cc(Oc3ccc(NC(=O)Nc4cc(C)ccc4F)c(F)c3)ccn2)c1)C(=O)OC [Example 270] : 8 nM
3) CCOC(=O)N1CCN(CCCNC(=O)c2c[nH]c(-c3cc(Oc4cc(C(=O)Nc5cc(C)ccc5F)ccc4F)ccn3)c2)CC1 [Example 171] : 91 nM
4) Cc1ccc(F)c(NC(=O)c2ccc(F)c(Oc3ccnc(-c4cc(C(=O)NCCN)c[nH]4)c3)c2)c1 [Example 182] : 86 nM

---

Molecular target: PDGFβ (Homo sapiens)
Test: PDGFβ enzyme assay
Assay type: biochemical
Conditions: Table IV, amide or urea linker
pIC50: −log10 of the molar value.
Recorded pIC50 values for a group of molecules are listed next.
observation.type: pIC50

1. Cc1ccc(F)c(NC(=O)Nc2ccc(Oc3ccnc(-c4cc(C(=O)NCCCN5CCCC5C(=O)O)c[nH]4)c3)cc2)c1 (stereo not shown) : 7.68
2. Cc1ccc(F)c(NC(=O)Nc2ccc(Oc3ccnc(-c4cc(C(=O)N5CCC5)c[nH]4)c3)cc2)c1 : 7.20
3. Cc1ccc(F)c(NC(=O)c2ccc(F)c(Oc3ccnc(-c4cc(C(=O)NCCCN5CCCC5)c[nH]4)c3)c2)c1 : 7.01
4. COC(=O)CNCCCNC(=O)c1c[nH]c(-c2cc(Oc3cc(C(=O)Nc4cc(C)ccc4F)ccc3F)ccn2)c1 : 7.28

---

Biological target: PDGFβ (Homo sapiens, UniProt P09619)
Sequence (P09619 33-1106): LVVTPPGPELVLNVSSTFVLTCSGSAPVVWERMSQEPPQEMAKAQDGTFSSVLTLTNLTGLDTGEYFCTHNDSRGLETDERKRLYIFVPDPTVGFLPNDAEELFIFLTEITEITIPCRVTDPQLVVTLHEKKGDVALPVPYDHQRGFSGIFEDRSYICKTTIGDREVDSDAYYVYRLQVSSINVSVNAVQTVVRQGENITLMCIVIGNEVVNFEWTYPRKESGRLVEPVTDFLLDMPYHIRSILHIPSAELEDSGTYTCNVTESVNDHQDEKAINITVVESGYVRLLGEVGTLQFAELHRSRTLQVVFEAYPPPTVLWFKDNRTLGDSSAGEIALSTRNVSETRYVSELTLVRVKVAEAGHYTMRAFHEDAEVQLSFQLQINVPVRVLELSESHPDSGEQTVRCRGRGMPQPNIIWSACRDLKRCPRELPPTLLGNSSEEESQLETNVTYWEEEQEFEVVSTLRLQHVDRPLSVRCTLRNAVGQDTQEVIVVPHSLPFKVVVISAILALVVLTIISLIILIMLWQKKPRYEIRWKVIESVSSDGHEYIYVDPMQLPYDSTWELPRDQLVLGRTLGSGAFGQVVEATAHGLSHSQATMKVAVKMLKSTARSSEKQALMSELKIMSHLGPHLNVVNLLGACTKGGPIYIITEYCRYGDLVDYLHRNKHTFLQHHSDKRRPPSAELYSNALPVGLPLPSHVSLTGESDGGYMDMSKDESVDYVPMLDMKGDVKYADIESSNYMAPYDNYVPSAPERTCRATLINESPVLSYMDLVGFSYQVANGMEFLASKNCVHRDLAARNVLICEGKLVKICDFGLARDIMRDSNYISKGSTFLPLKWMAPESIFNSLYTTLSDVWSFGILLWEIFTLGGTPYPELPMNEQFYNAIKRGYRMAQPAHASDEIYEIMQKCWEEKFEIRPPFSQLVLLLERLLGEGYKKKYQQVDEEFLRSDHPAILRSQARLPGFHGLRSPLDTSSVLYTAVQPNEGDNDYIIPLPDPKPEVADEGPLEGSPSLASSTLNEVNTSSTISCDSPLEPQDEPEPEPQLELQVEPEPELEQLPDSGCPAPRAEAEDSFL
Assay: PDGF stimulated Ca2+ signal in vitro (FLIPR)
Assay type: cell-based
Design: host or cells: NHDF-Ad (normal human dermal fibroblasts)
Conditions: NHDF-Ad, PDGF stimulation 10 ng/mL; Table IV, amide or urea linker; read-out: PDGFβ Cellular IC50
pIC50: −log10 of the molar value.
Recorded pIC50 values for a group of compounds are listed next.
observation.type: pIC50

1. CCNC(=O)[C@H](CCC(=O)OC)NC(=O)c1c[nH]c(-c2cc(Oc3cc(C(=O)Nc4cc(C)ccc4F)ccc3F)ccn2)c1 [Example 261] : 6.97
2. CCOC(=O)CCNC(=O)c1c[nH]c(-c2cc(Oc3ccc(NC(=O)Nc4cc(C)ccc4F)c(F)c3)ccn2)c1 [Example 231] : 7.49
3. COC(=O)CCNC(=O)c1c[nH]c(-c2cc(Oc3ccc(NC(=O)Nc4cc(C)ccc4F)c(F)c3)ccn2)c1 [Example 175] : 7.49
4. COC(=O)CCCNC(=O)c1c[nH]c(-c2cc(Oc3ccc(NC(=O)Nc4cc(C)ccc4F)cc3)ccn2)c1 [Example 176] : 7.11
5. Cc1ccc(F)c(NC(=O)Nc2ccc(Oc3ccnc(-c4cc(C(=O)NCCNC(=O)OC(C)(C)C)c[nH]4)c3)cc2F)c1 [Example 216] : 6.67
6. COC(=O)CC[C@H](NC(=O)c1c[nH]c(-c2cc(Oc3ccc(NC(=O)Nc4cccc(C)c4)c(F)c3)ccn2)c1)C(=O)OC [Example 230] : 7.51

---

Molecular target: PDGFβ (Homo sapiens, UniProt P09619)
Assay: PDGFβ enzyme assay
Type: biochemical
Conditions: Table IV, amide or urea linker
Recorded IC50 values for a group of compounds are listed next.
observation.type: IC50 (nM)

1. COC(=O)C1CCCN1CCCNC(=O)c1c[nH]c(-c2cc(Oc3ccc(NC(=O)Nc4cc(C)ccc4F)c(F)c3)ccn2)c1 (stereo not shown) : 9
2. COC(=O)CNCCCNC(=O)c1c[nH]c(-c2cc(Oc3ccc(NC(=O)Nc4cc(C)ccc4F)c(F)c3)ccn2)c1 : 19
3. COC(=O)CCNC(=O)c1cc(-c2cc(Oc3ccc(NC(=O)Nc4cc(C)ccc4F)cc3)ccn2)cs1 : 23
4. Cc1ccc(F)c(NC(=O)Nc2ccc(Oc3ccnc(-c4cc(C(=O)NCCCN5CCCC(CO)C5)c[nH]4)c3)cc2)c1 (stereo not shown) : 19
5. Cc1ccc(F)c(NC(=O)Nc2ccc(Oc3ccnc(-c4cc(C(=O)NCCCN5CCOC(CO)C5)c[nH]4)c3)cc2F)c1 (stereo not shown) : 17
6. CCOC(=O)N1CCN(CCCNC(=O)c2c[nH]c(-c3cc(Oc4cc(C(=O)Nc5cc(C)ccc5F)ccc4F)ccn3)c2)CC1 : 33
7. Cc1ccc(F)c(NC(=O)Nc2ccc(Oc3ccnc(-c4cc(C(=O)NCCCN5CCOC(CO)C5)c[nH]4)c3)cc2)c1 (stereo not shown) : 33

---

Quick note: these are IC50 numbers for system: human VEGF receptor (VEGFR-2) (Homo sapiens)
Sequence (P35968 786-1356 limits assumed): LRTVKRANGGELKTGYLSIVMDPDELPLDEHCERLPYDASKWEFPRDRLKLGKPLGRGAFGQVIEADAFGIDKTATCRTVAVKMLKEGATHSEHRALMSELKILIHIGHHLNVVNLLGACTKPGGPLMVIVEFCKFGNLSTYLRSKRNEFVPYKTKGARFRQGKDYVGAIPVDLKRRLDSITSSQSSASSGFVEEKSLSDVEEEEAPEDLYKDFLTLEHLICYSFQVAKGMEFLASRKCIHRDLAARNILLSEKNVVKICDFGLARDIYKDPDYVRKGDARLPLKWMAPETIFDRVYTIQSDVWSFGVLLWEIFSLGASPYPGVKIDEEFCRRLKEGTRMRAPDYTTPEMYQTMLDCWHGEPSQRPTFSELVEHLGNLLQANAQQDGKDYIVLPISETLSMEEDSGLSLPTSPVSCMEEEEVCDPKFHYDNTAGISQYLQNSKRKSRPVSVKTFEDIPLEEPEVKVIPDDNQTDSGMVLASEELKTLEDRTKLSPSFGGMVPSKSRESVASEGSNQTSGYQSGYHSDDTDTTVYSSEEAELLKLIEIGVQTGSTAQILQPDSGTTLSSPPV
observation.type: IC50 (nM)

1. CCNC(=O)CC[C@H](NC(=O)c1c[nH]c(-c2cc(Oc3ccc(NC(=O)Nc4cc(C)ccc4F)cc3)ccn2)c1)C(=O)NCC : 14
2. COC(=O)CCNC(=O)c1cc(-c2cc(Oc3ccc(NC(=O)Nc4cc(C)ccc4F)cc3)ccn2)cs1 : 21
3. Cc1ccc(F)c(NC(=O)c2ccc(F)c(Oc3ccnc(-c4cc(C(=O)NCCCN5CCCC5)c[nH]4)c3)c2)c1 : 15
4. Cc1ccc(F)c(NC(=O)Nc2ccc(Oc3ccnc(-c4cc(C(=O)NCCCCC(=O)O)c[nH]4)c3)cc2)c1 : 5

---

Target: PDGFβ (Homo sapiens, UniProt P09619)
Assay: PDGFβ enzyme assay
Format: biochemical
Settings: Table IV, amide or urea linker
Recorded IC50 values for a group of molecules are listed next.
observation.type: IC50 (nM)

1. Cc1ccc(F)c(NC(=O)Nc2ccc(Oc3ccnc(-c4cc(C(=O)NCCCN)c[nH]4)c3)cc2)c1 : 54
2. Cc1ccc(F)c(NC(=O)Nc2ccc(Oc3ccnc(-c4cc(C(=O)NCC(=O)O)c[nH]4)c3)cc2F)c1 : 13
3. Cc1ccc(F)c(NC(=O)Nc2ccc(Oc3ccnc(-c4cc(C(=O)NCCCc5nn[nH]n5)c[nH]4)c3)cc2)c1 : 13
4. Cc1cccc(NC(=O)Nc2ccc(Oc3ccnc(-c4cc(C(=O)NCCCO)c[nH]4)c3)cc2)c1 : 19

---

pIC50: −log10 of the molar value.
Quick note: these are pIC50 numbers for system: human VEGF receptor (VEGFR-2) (Homo sapiens)
observation.type: pIC50

1) COC(=O)CNCCCNC(=O)c1c[nH]c(-c2cc(Oc3ccc(NC(=O)Nc4cc(C)ccc4F)cc3)ccn2)c1 : 8.15
2) COC(=O)CC[C@H](NC(=O)c1c[nH]c(-c2cc(Oc3ccc(NC(=O)Nc4cc(C)ccc4F)c(F)c3)ccn2)c1)C(=O)OC : 8.15
3) COC(=O)[C@@H]1C[C@@H](O)CN1CCCNC(=O)c1c[nH]c(-c2cc(Oc3ccc(NC(=O)Nc4cc(C)ccc4F)cc3)ccn2)c1 (relative stereo) : 8.05
4) Cc1ccc(F)c(NC(=O)c2ccc(F)c(Oc3ccnc(-c4cc(C(=O)NCCCN)c[nH]4)c3)c2)c1 : 7.62
5) Cc1ccc(F)c(NC(=O)Nc2ccc(Oc3ccnc(-c4cc(C(=O)NCCCN)c[nH]4)c3)cc2F)c1 : 7.89
6) Cc1ccc(F)c(NC(=O)c2ccc(F)c(Oc3ccnc(-c4cc(C(=O)NCCC(=O)O)c[nH]4)c3)c2)c1 : 7.44
7) COCCOC(=O)c1c[nH]c(-c2cc(Oc3ccc(NC(=O)Nc4cc(C)ccc4F)c(F)c3)ccn2)c1 : 8.05
8) COC(=O)CNCCNC(=O)c1c[nH]c(-c2cc(Oc3cc(C(=O)Nc4cc(C)ccc4F)ccc3F)ccn2)c1 : 7.66
9) Cc1ccc(F)c(NC(=O)Nc2ccc(Oc3ccnc(-c4cc(C(=O)N5CCN(CC(=O)O)CC5)c[nH]4)c3)cc2F)c1 : 8.30
10) Cc1ccc(F)c(NC(=O)Nc2ccc(Oc3ccnc(-c4cc(C(=O)NCCCN)c[nH]4)c3)cc2)c1 : 7.62
11) Cc1ccc(F)c(NC(=O)c2ccc(F)c(Oc3ccnc(-c4cc(C(=O)NCCCN5CCC(O)CC5)c[nH]4)c3)c2)c1 : 7.72
12) Cc1cccc(NC(=O)Nc2ccc(Oc3ccnc(-c4cc(C(=O)NN)c[nH]4)c3)cc2)c1 : 7.72
13) Cc1ccc(F)c(NC(=O)Nc2ccc(Oc3ccnc(-c4cc(C(=O)NCCN)c[nH]4)c3)cc2F)c1 : 8.05
14) CCOC(=O)CN1CCN(CCCNC(=O)c2c[nH]c(-c3cc(Oc4ccc(NC(=O)Nc5cc(C)ccc5F)cc4)ccn3)c2)CC1 : 7.96

---

Biological target: PDGFβ (Homo sapiens)
Test: PDGFβ enzyme assay
Assay type: biochemical
Conditions: Table IV, amide or urea linker
pIC50: −log10 of the molar value.
observation.type: pIC50

1) Cc1ccc(F)c(NC(=O)Nc2ccc(Oc3ccnc(-c4cc(C(=O)NCCCN5CCC(O)CC5)c[nH]4)c3)cc2F)c1 : 7.77
2) Cc1ccc(F)c(NC(=O)c2ccc(F)c(Oc3ccnc(-c4cc(C(=O)NCCCN)c[nH]4)c3)c2)c1 : 7.00
3) Cc1ccc(F)c(NC(=O)c2ccc(F)c(Oc3ccnc(-c4cc(C(=O)NCCCO)c[nH]4)c3)c2)c1 : 7.03
4) Cc1ccc(F)c(NC(=O)c2ccc(F)c(Oc3ccnc(-c4cc(C(=O)NCCCN5CCOCC5)c[nH]4)c3)c2)c1 : 7.46
5) COCCOC(=O)CCCNC(=O)c1c[nH]c(-c2cc(Oc3ccc(NC(=O)Nc4cc(C)ccc4F)cc3)ccn2)c1 : 7.66
6) COC(=O)CNCCNC(=O)c1c[nH]c(-c2cc(Oc3cc(C(=O)Nc4cc(C)ccc4F)ccc3F)ccn2)c1 : 6.88
7) CCOC(=O)CN1CCN(CCCNC(=O)c2c[nH]c(-c3cc(Oc4ccc(NC(=O)Nc5cc(C)ccc5F)cc4)ccn3)c2)CC1 : 7.54
